target: Delta-type opioid receptor (Rattus norvegicus, UniProt P33533); assay: Displacement of [3H]DPDPE from delta opioid receptor in rat cortices by competition binding assay
Sequence (P33533 whole entry): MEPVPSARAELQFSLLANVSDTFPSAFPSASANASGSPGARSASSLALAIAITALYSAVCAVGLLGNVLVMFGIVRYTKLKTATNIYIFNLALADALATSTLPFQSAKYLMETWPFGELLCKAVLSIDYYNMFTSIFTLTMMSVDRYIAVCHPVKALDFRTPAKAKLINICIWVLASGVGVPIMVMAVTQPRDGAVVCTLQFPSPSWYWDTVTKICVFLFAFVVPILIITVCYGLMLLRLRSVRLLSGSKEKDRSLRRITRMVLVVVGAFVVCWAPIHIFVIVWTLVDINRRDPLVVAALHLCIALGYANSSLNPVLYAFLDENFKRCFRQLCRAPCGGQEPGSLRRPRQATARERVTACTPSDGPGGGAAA
Exercise: state measured Ki for each of the molecules provided.
# unit: nM | format: bare number

Incoming: Give recorded Ki with Delta-type opioid receptor (Rattus norvegicus, UniProt P33533) for the following molecule: Oc1ccc(C[C@H]2CN3C(=CC4=NC[C@H](Cc5ccccc5)N4C[C@@H]3Cc3ccc(O)cc3)N2)cc1
Outgoing: 338

Incoming: Could you do the same for Oc1ccc(C[C@H]2CN3C(=CC4=NC[C@H](Cc5ccc(O)cc5)N4C[C@@H]3Cc3ccccc3)N2CCc2ccccc2)cc1 , please?
Outgoing: 50

Incoming: Same question for CC(C)[C@H]1CN=C2C=C3N(CCc4ccccc4)[C@@H](Cc4ccc(O)cc4)CN3[C@@H](Cc3ccccc3)CN21 please.
Outgoing: 1380

Incoming: Now try CC(C)C[C@H]1CN2C(=CC3=NC[C@H](Cc4ccccc4)N3C[C@@H]2Cc2ccc(O)cc2)N1 .
Outgoing: 57

Incoming: One more molecule: Oc1ccc(C[C@H]2CN3C(=CC4=NC[C@H](Cc5ccccc5)N4C[C@@H]3Cc3ccccc3)N2CCc2ccccc2)cc1
Outgoing: 1280

Incoming: Again, but for Oc1ccc(C[C@H]2CN3C(=CC4=NC[C@H](Cc5ccc(O)cc5)N4C[C@@H]3Cc3ccc(O)cc3)N2)cc1
Outgoing: 316

Incoming: Try this molecule too: Oc1ccc(C[C@H]2CN3C(=CC4=NC[C@H](Cc5ccccc5)N4C[C@@H]3Cc3ccccc3)N2)cc1
Outgoing: 2090
